tested target: Human CB1R (Cannabinoid receptor 1) (Homo sapiens)
Sequence (P21554 whole entry): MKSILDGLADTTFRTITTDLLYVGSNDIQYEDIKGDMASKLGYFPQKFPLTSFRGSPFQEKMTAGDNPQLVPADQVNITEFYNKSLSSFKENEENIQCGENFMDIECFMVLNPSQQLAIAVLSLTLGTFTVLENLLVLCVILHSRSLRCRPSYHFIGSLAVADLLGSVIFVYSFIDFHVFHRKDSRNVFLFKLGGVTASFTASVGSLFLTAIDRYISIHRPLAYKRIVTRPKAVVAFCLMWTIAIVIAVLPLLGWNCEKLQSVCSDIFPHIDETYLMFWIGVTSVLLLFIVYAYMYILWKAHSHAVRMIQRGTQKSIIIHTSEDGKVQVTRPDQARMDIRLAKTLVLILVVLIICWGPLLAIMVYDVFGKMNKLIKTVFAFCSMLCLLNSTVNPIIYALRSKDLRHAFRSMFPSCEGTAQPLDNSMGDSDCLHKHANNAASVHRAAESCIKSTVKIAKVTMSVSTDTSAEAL
protocol: CB-1 in vitro cAMP (HTRF) assay
Format: cell-based
details: HEK cells, cAMP HTRF, 250 nM forskolin; mean where tested more than once; read-out: CB1 HEK_cAMP EC50
# Lookup of reported pEC50 keyed by entry
On this scale, pEC50 is minus log10 of a concentration expressed in M (mol/L).

Example cases with answers are listed next.
| molecule | measure | number |
| --- | --- | --- |
| Nc1cccc(S(=O)(=O)N2CCC(n3c(C4CC4)nc4ccc(C(c5ccc(Cl)cc5)c5ccc(Cl)cc5)cc43)CC2)c1 [Example 52] | pEC50 | 8.04 |
| CCc1nc2ccc(C(O)(c3ccc(Cl)cc3)c3ccc(Cl)cc3)cc2n1C1CCN(S(=O)(=O)C(F)(F)F)CC1 [Example 308] | pEC50 | 7.20 |
| NC(=O)c1ccc(CN2CCC(n3c(C4CC4)nc4ccc(C(c5ccc(Cl)cc5)c5ccc(Cl)cc5)cc43)CC2)s1 [Example 126] | pEC50 | 8.38 |
| CC(C)(C)c1nc2ccc(C(c3ccc(Cl)cc3)c3ccc(Cl)cc3)cc2n1C1CCN(S(=O)(=O)C(F)(F)F)CC1 [Example 291] | pEC50 | 5.65 |
| O=C(O)c1ccc(C(O)(c2ccc(Cl)cc2)c2ccc3nc(C4CC4)n(C4CCN(S(=O)(=O)C(F)(F)F)CC4)c3c2)cc1 (stereo not shown) [Example 150] | pEC50 | 6.01 |

Q: Which pEC50 value belongs to O=S(=O)(N1CCC(n2cnc3ccc(C(c4ccc(Cl)cc4)c4nccs4)cc32)CC1)C(F)(F)F (stereo not shown) [Example 398] ?
A: 7.68

Q: Given Cc1cc(C(=O)O)sc1S(=O)(=O)N1CCC(n2c(C3CC3)nc3ccc(C(c4ccc(Cl)cc4)c4ccc(Cl)cc4)cc32)CC1 [Example 218] , state its recorded pEC50.
A: 8.14

Q: Param item = O=C(O)c1ccc(CN2CCC(n3c(C4CC4)nc4ccc(C(c5ccc(Cl)cc5)c5ccc(Cl)cc5)cc43)CC2)cn1 [Example 106] ; retrieve measured pEC50.
A: 7.22

Q: # input molecule: COc1cc(S(=O)(=O)N2CCC(n3c(C4CC4)nc4ccc(C(c5ccc(Cl)cc5)c5ccc(Cl)cc5)cc43)CC2)ccc1C(N)=O [Example 250] ; wanted: its pEC50
A: 8.54

Q: I'd like to know its pEC50. The molecule in question is O=C(O)C(c1ccc(Cl)cc1)(c1ccc(Cl)cc1)c1ccc2nc(C3CC3)n(C3CCN(S(=O)(=O)C(F)(F)F)CC3)c2c1 [Example 267]
A: 8.15

Q: Param item = NS(=O)(=O)c1cccc(C(=O)N2CCC(n3c(C4CC4)nc4ccc(C(c5ccc(Cl)cc5)c5ccc(Cl)cc5)cc43)CC2)c1 [Example 229] ; retrieve measured pEC50.
A: 7.86

Q: # query: pEC50 of entry O=S(=O)(N1CCC(n2c(C3CCC3)nc3ccc(C(O)(c4ccc(Cl)cc4)c4ccc(Cl)cc4)cc32)CC1)C(F)(F)F [Example 319]
A: 7.65

Q: Bench note: what pEC50 did O=C(O)c1ccc(C(F)(F)F)c(CN2CCC(n3c(C4CC4)nc4ccc(C(c5ccc(Cl)cc5)c5ccc(Cl)cc5)cc43)CC2)c1 [Example 80] show?
A: 7.06
